Test system: Mycobacterium avium
condition: 104 mc'2 3
outcome.measure: MIC

In the examples that follow, each entry is paired with its recorded MIC.
>  <molecule>
CCCOc1ccc(-c2cn(CCN(CC)CC)c3ccccc3c2=O)cc1

>  <measured.target>
Mycobacterium avium

>  <result>
512 µg/mL

$$$$
>  <molecule>
CCCOc1ccc(-c2cn(CCN3CCCCC3)c3ccccc3c2=O)cc1

>  <measured.target>
Mycobacterium avium

>  <result>
< 4 µg/mL

$$$$
>  <molecule>
CN(C)CCCN1c2ccccc2Sc2ccc(Cl)cc21

>  <measured.target>
Mycobacterium avium

>  <result>
< 4 µg/mL

$$$$
>  <molecule>
CCCOc1ccc(-c2cn(CCN3CCCCCC3)c3ccccc3c2=O)cc1

>  <measured.target>
Mycobacterium avium

>  <result>
< 4 µg/mL

$$$$

Ask | Dear colleague, please send me the reported MIC for CSc1ccc2c(c1)N(CCC1CCCCN1C)c1ccccc1S2 (stereo not given) when you can.
Reply | < 4 µg/mL
